Where these numbers come from: patent US12024584B2

# assayProcedure: Persoz hardness of pigmented and complete PUDs
# Assay type: physicochemical
# setupConditions: 21 Days, pigmented; in s
property: Persoz Hardness

{"molecule": "CCCCN1CCCC1=O [NBP, N-butyl pyrrolidone, reference compound]", "Persoz Hardness": 136.6}
{"molecule": "CN1CCCC1=O [NMP, N-methyl pyrrolidone, reference compound]", "Persoz Hardness": 107.6}
{"molecule": "CN1CCCCCC1=O", "Persoz Hardness": 124.0}
{"molecule": "CCN1CCCCCC1=O", "Persoz Hardness": 104.0}

* * *

# assayProcedure: Gloss of pigmented and complete PUDs (ISO 2813)
# Type: physicochemical
# setupConditions: 60°
property: Gloss 60°

{"compound": "COC(=O)CCCCC(=O)N(C)C [Ester amide]", "property": "Gloss 60°", "testValue": 3.3}
{"compound": "CN1CCCC1=O [NMP, N-methyl pyrrolidone, reference compound]", "property": "Gloss 60°", "testValue": 3.6}
{"compound": "CCCCN1CCCC1=O [NBP, N-butyl pyrrolidone, reference compound]", "property": "Gloss 60°", "testValue": 2.8}
{"compound": "CN1CCCCCC1=O", "property": "Gloss 60°", "testValue": 3.0}
{"compound": "CCN1CCCCCC1=O", "property": "Gloss 60°", "testValue": 3.0}

* * *

# assayProcedure: Scrub resistance of pigmented and complete PUDs (ISO 11998)
# Format: physicochemical
# setupConditions: calculated from weight loss
Measured Loss of thickness after 200 wet-scrub cycles of individual entries
Write it as a number; the unit µm goes unstated.

{"compound": "COC(=O)CCCCC(=O)N(C)C [Ester amide]", "testValue": 4.040}

Consider the record given below.
Exercise: For CCN1CCCCCC1=O , what is its reported Loss of thickness after 200 wet-scrub cycles?
Key: 1.797

* * *

# assayProcedure: Persoz hardness of pigmented and complete PUDs
# Format: physicochemical
# setupConditions: 1 Day, pigmented; in s
property: Persoz Hardness

{"molecule": "CN1CCCC1=O [NMP, N-methyl pyrrolidone, reference compound]", "Persoz Hardness": 94.2}
{"molecule": "CCN1CCCCCC1=O [N—EtCPL, N-ethyl caprolactam]", "Persoz Hardness": 101.0}
{"molecule": "CCCCN1CCCC1=O [NBP, N-butyl pyrrolidone, reference compound]", "Persoz Hardness": 64.4}
{"molecule": "CN1CCCCCC1=O [N—MeCPL, N-methyl caprolactam]", "Persoz Hardness": 95.2}

* * *

# assayProcedure: Color of pigmented and complete PUDs (ISO 7724-2)
# Format: physicochemical
# setupConditions: Black background
# Method: Tests were first performed to determine the coalescing agent level for pigmented and complete PUD formulations in order to achieve the optimum film formation. […] Gloss measurements serve as an indicator of the paints surface quality. Gloss and color measurements were determined according to the ISO 2813 standard and the ISO 7724-2 standard (SCI-D65/10°), respectively.
property: Color (Black background) b*

{"compound": "CN1CCCC1=O [NMP, N-methyl pyrrolidone, reference compound]", "Color (Black background) b*": 2.20}
{"compound": "CCCCN1CCCC1=O [NBP, N-butyl pyrrolidone, reference compound]", "Color (Black background) b*": 2.20}
{"compound": "CN1CCCCCC1=O", "Color (Black background) b*": 2.25}
{"compound": "COC(=O)CCCCC(=O)N(C)C [Ester amide]", "Color (Black background) b*": 2.03}
{"compound": "CCN1CCCCCC1=O", "Color (Black background) b*": 2.46}

* * *

# assayProcedure: Persoz hardness of pigmented and complete PUDs
# Type: physicochemical
# setupConditions: 7 Days, pigmented; in s
property: Persoz Hardness

{"molecule": "CN1CCCC1=O [NMP, N-methyl pyrrolidone, reference compound]", "Persoz Hardness": 101.0}
{"molecule": "CN1CCCCCC1=O [N—MeCPL, N-methyl caprolactam]", "Persoz Hardness": 101.2}
{"molecule": "CCN1CCCCCC1=O [N—EtCPL, N-ethyl caprolactam]", "Persoz Hardness": 102.0}
{"molecule": "CCCCN1CCCC1=O [NBP, N-butyl pyrrolidone, reference compound]", "Persoz Hardness": 127.0}

* * *

# assayProcedure: Open time (ASTM D7488)
# Assay type: physicochemical
# setupConditions: ASTM D7488, 23±2° C., 50±5% RH, wet film 200 μm
property: Open Time (min)

{"compound": "COC(=O)CCCCC(=O)N(C)C [Ester amide]", "valueUnits": "min", "Open Time": 12}
{"compound": "CN1CCCC1=O [NMP, N-methyl pyrrolidone, reference compound]", "valueUnits": "min", "Open Time": 12}
{"compound": "CCCCN1CCCC1=O [NBP, N-butyl pyrrolidone, reference compound]", "valueUnits": "min", "Open Time": 12}
{"compound": "CCN1CCCCCC1=O", "valueUnits": "min", "Open Time": 16}
{"compound": "CN1CCCCCC1=O", "valueUnits": "min", "Open Time": 14}

* * *

# assayProcedure: Drying time (ASTM D1640 / ASTM D5895)
# Assay type: physicochemical
# setupConditions: 200 μm humid film; blends by ASTM D1640, single solvents by ASTM D5895
property: Drying Time (min)

See these solved cases before continuing.
{"compound": "COC(=O)CCCCC(=O)N(C)C [Ester amide]", "Drying Time [min]": 13.3}
{"compound": "CCN1CCCCCC1=O", "Drying Time [min]": 17.4}
{"compound": "CCCCN1CCCC1=O [NBP, N-butyl pyrrolidone, reference compound]", "Drying Time [min]": 11.8}

(I) CN1CCCC1=O [NMP, N-methyl pyrrolidone, reference compound]
(II) CN1CCCCCC1=O
Exercise: Please indicate which has the smaller reported Drying Time: I , or II . Pick one and reply with its label.
Key: II
(II: 11.6 min, I: 19.8 min)

* * *

# assayProcedure: Persoz hardness of pigmented and complete PUDs
# Type: physicochemical
# setupConditions: 14 Days, pigmented; in s
property: Persoz Hardness

{"molecule": "CCCCN1CCCC1=O [NBP, N-butyl pyrrolidone, reference compound]", "property": "Persoz Hardness", "testValue": 133.2}
{"molecule": "CN1CCCCCC1=O", "property": "Persoz Hardness", "testValue": 122.0}
{"molecule": "CCN1CCCCCC1=O", "property": "Persoz Hardness", "testValue": 101.4}
{"molecule": "CN1CCCC1=O [NMP, N-methyl pyrrolidone, reference compound]", "property": "Persoz Hardness", "testValue": 100.6}

* * *

# assayProcedure: Color of pigmented and complete PUDs (ISO 7724-2)
# Type: physicochemical
# setupConditions: Black background
property: Color (Black background) a*

{"compound": "CN1CCCCCC1=O", "Color (Black background) a*": "−0.97"}
{"compound": "CCN1CCCCCC1=O", "Color (Black background) a*": "−0.92"}
{"compound": "COC(=O)CCCCC(=O)N(C)C [Ester amide]", "Color (Black background) a*": "−1.05"}
{"compound": "CCCCN1CCCC1=O [NBP, N-butyl pyrrolidone, reference compound]", "Color (Black background) a*": "−1.04"}
{"compound": "CN1CCCC1=O [NMP, N-methyl pyrrolidone, reference compound]", "Color (Black background) a*": "−0.88"}

* * *

# assayProcedure: Color of pigmented and complete PUDs (ISO 7724-2)
# Format: physicochemical
# setupConditions: White background
property: Color (White background) a*

{"compound": "CCCCN1CCCC1=O [NBP, N-butyl pyrrolidone, reference compound]", "Color (White background) a*": "−0.56"}
{"compound": "COC(=O)CCCCC(=O)N(C)C [Ester amide]", "Color (White background) a*": "−0.51"}
{"compound": "CN1CCCC1=O [NMP, N-methyl pyrrolidone, reference compound]", "Color (White background) a*": "−0.52"}
{"compound": "CCN1CCCCCC1=O [N—EtCPL, N-ethyl caprolactam]", "Color (White background) a*": "−0.61"}
{"compound": "CN1CCCCCC1=O [N—MeCPL, N-methyl caprolactam]", "Color (White background) a*": "−0.52"}

* * *

# assayProcedure: Gloss of pigmented and complete PUDs (ISO 2813)
# Format: physicochemical
# setupConditions: 85°
property: Gloss 85°

{"molecule": "CCN1CCCCCC1=O", "testValue": 24.5}
{"molecule": "CN1CCCC1=O [NMP, N-methyl pyrrolidone, reference compound]", "testValue": 30.7}
{"molecule": "CN1CCCCCC1=O", "testValue": 23.2}
{"molecule": "CCCCN1CCCC1=O [NBP, N-butyl pyrrolidone, reference compound]", "testValue": 19.9}
{"molecule": "COC(=O)CCCCC(=O)N(C)C [Ester amide]", "testValue": 24.2}

* * *

# assayProcedure: Color of pigmented and complete PUDs (ISO 7724-2)
# Format: physicochemical
# setupConditions: Black background
property: Color (Black background) L*

{"compound": "CN1CCCCCC1=O", "Color (Black background) L*": 94.09}
{"compound": "CCCCN1CCCC1=O [NBP, N-butyl pyrrolidone, reference compound]", "Color (Black background) L*": 94.00}
{"compound": "COC(=O)CCCCC(=O)N(C)C [Ester amide]", "Color (Black background) L*": 93.84}
{"compound": "CN1CCCC1=O [NMP, N-methyl pyrrolidone, reference compound]", "Color (Black background) L*": 94.55}
{"compound": "CCN1CCCCCC1=O", "Color (Black background) L*": 94.45}
